Biological target: RPS6KA5 KD1 KD2 (human) (UniProt O75582)
Sequence (O75582 whole entry, looked up): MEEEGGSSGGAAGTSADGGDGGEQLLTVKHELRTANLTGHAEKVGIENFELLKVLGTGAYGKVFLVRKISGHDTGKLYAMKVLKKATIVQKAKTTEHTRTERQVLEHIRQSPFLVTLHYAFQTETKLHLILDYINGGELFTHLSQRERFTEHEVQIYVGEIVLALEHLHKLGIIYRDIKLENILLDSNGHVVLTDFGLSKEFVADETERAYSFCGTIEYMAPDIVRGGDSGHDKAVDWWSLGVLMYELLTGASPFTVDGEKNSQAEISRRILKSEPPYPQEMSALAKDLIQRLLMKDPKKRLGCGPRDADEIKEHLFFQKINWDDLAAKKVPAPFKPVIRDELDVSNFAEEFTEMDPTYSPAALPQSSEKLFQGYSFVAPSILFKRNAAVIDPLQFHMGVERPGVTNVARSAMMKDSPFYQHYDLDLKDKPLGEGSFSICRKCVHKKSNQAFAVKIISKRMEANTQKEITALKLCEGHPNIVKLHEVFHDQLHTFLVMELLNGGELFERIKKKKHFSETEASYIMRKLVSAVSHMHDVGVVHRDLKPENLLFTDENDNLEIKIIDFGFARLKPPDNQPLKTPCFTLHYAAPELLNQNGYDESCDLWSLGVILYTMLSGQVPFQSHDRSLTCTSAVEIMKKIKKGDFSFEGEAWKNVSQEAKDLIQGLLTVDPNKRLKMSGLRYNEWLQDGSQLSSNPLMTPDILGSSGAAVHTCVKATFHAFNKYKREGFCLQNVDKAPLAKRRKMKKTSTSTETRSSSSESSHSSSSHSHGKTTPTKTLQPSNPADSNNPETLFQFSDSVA
Experiment: radiometric filter-binding kinase assay
Settings: compound 1.0 µM
parameterMeasured: residual activity (%)
The figure you give is taken to be in %; do not add the unit.

| molecule | testValue |
| --- | --- |
| O=C1Nc2nc(-c3c(O)cccc3OCC3CC3)cc(C3CCCNC3)c2CO1 (stereo not given) | 71 |

What does the data say about its residual activity? Entry: "Cc1cc(SCc2sc(-c3ccc(C(F)(F)F)cc3)nc2C)ccc1OCC(=O)O"
96

What does the data say about its residual activity? Entry: "c1ccc2c(-c3cnn4cc(-c5ccc(N6CCNCC6)cc5)cnc34)ccnc2c1"
83

What does the data say about its residual activity? Entry: "COc1cc(C(=O)N2CCOCC2)c(F)cc1Nc1ncc(C(F)(F)F)c(NC2CC2)n1"
85

What does the data say about its residual activity? Entry: Nc1cccc2c1CN(C1CCC(=O)NC1=O)C2=O (stereo not given)
91
